- ASSAY PROTOCOL: FP purification and fluorescence characterization in vitro (spectra, extinction coefficient, quantum yield)
- Assay type: physicochemical
- EXPERIMENTAL PARAMETERS: evolved APCα FPs, Table 4
VALUE TYPE: Quantum Yield (%)
Report as a plain number; the unit % is understood.

Please review the following examples before continuing.
# MOLECULE, Quantum Yield / %
data = [
    ("R7-7: evolved APCα FP, SEQ ID NO: 8, with BV (protein, biliverdin chromophore; smRUFP Variant Polypeptide) MKTCEQRVKIATLLSENKKKIVDKASQDLWRRHPDLIAPGGIAFSQRERALCLRDYGWYLHLITFCLLAGDKGPIESIGLIGIREMYNSLGVPVPGMMESIRCLKEASLSLLDEEDAKETAPYFDYIIKAIS", 16),
    ("R4-1: evolved APCα FP, SEQ ID NO: 5, with BV (protein, biliverdin chromophore; smRUFP Variant Polypeptide) MKTGEQRVKIATLLSENEKKIVDKASQDLWRRRPDFIAPGGIAFSQRERALCLRDYRWYLHLITFCLLAGDKDPIESIGLIGIREMYNSLGVPVPGMMESIRCLKEASLSLLDEEDAKETAPYFDYIIKAMS", 9.0),
    ("R10-10: evolved APCα FP, SEQ ID NO: 11, with BV (protein, biliverdin chromophore; smRUFP Variant Polypeptide) MKTCEQRVNIATLLTENKKKIVDKASQDLWRRHPDLIAPGGIAFSQRDRALCLRDYGWYLHLITFCLLAGDKGPIESIGLIGIREMYNSLGVPVPAMMESIRCLKEASLSLLDEEDANETAPYFDYIIKAMS", 15),
    ("smURFP: small ultra-red fluorescent protein, SEQ ID NO: 13, homodimer, covalently attaches biliverdin (protein, homodimer; biliverdin chromophore; smRUFP Variant Polypeptide) MKTSEQRVNIATLLTENKKKIVDKASQDLWRRHPDLIAPGGIAFSQRDRALCLRDYGWFLHLITFCLLAGDKGPIESIGLISIREMYNSLGVPVPAMMESIRCLKEASLSLLDEEDANETAPYFDYIIKAMS", 18),
    ("R11-2: evolved APCα FP, SEQ ID NO: 12, with BV (protein, biliverdin chromophore; smRUFP Variant Polypeptide) MKTCEQRVNIATLLTENKKKIVDKASQDLWRRHPDLIAPGGIAFSQRDRALCLRDYGWYLHLITFCLLAGDKGPIESIGLISIREMYNSLGVPVPAMMESIRCLKEASLSLLEEEDANETAPYFDYIIKAMS", 12),
    ("R8-9: evolved APCα FP, SEQ ID NO: 10, with BV (protein, biliverdin chromophore; smRUFP Variant Polypeptide) MKTCEQRVNIATLLSENKKKIVDKASQDLWRRRPDLIAPGGIAFSQRDRALCLRDYGWYLHLITFCLLAGDKGPIESIGLIGIREMYNSLGVPVPDMMESIRCLKEASLSLLDEEDAKETAPYFDYIIKAMS", 12),
    ("R5-2: evolved APCα FP, SEQ ID NO: 6, with BV (protein, biliverdin chromophore; smRUFP Variant Polypeptide) MKTCEQRVKIATLLSENEKKIVDKASQDLWRRRPDFIAPGGIAFSQRERALCLRDHRWYLHLITFCLLAGDKDPIESIGLIGIREMYNSLGVPVPGMMESIRCLKEASLSLLDEEDAKETAPYFDYIIKAMS", 5.3),
    ("R2-1 + PCB: evolved APCα FP, SEQ ID NO: 3, with PCB (protein, phycocyanobilin chromophore; smRUFP Variant Polypeptide) MKTGEQRVKIATLLSENEKKIVDKASQDLWRRRPDFIAPGGIAFGQRERALCLRDYGWYLRLITFCLLAGDKDPIESIGLIGVREMYNSLGVPVPGMVESIRCLKEASLSLLDEEDAKETAPYFDYIIQAMS", 7.2),
    ("R3-2 + PCB: evolved APCα FP, SEQ ID NO: 4, with PCB (protein, phycocyanobilin chromophore; smRUFP Variant Polypeptide) MKTGEQRVKIATLLSENEKKIVDKASQDLWRRRPDFIAPGGIAFGQRERALCLRDYGWYLRLITFCLLAGDKDPIESIGLIGIREMYNSLGVPVPGMMESIRCLKEASLSLLDEEDAKETAPYFDYIIQAMS", 13),
    ("R6-6: evolved APCα FP, SEQ ID NO: 7, with BV (protein, biliverdin chromophore; smRUFP Variant Polypeptide) MKTCEQRVKIATLLSENEKKIVDKASQDLWRRRPDLIAPGGIAFSQRERALCLRDYGWYLHLITFCLLAGDKGPIESIGLIGIREMYNSLGVPVPGMMESIRCLKEASLSLLDEEDAKETAPYFDYIIKAMS", 9.6),
]

Continue with the next molecule.
Could you share which Quantum Yield value was measured for R8-8: evolved APCα FP, SEQ ID NO: 9, with BV (protein, biliverdin chromophore; smRUFP Variant Polypeptide) MKTCEQRVKIATLLSENKKKIVDKASQDLWRRHPDLIAPGGIAFSQRDRALCLRDYGWYLHLITFCLLAGDKGPIESIGLIGIREMYNSLGVPVPAMMESIRCLKEASLSLLDEEDANETAPYFDYIIKAMS ?
13

Source listed as patent US10501502B2.
